# System: K-562 leukemia
# method summary: NCI tumour cell line growth inhibition, 48 h; in the data active = GI50 below about 0.43 µM; inactive = the rest
Possible outcomes: y = active, n = inactive

compound	answer label
CCCCCCCCCCCCNC(=O)[C@H]1CSC(c2ccc(OC)c(F)c2)N1 (some centres undefined)	y
C#Cc1ccc(-n2c(/C=C/c3cc(OC)c(OC)c(OC)c3)nc3ncccc3c2=O)cc1	n
O=c1[nH]c(-c2ccccn2)nc2sc3c(c12)CCCCCC3	n
CC1SC2(CCCCC2)N(NC(=O)c2[nH]c3ccc(F)cc3c2-c2ccccc2)C1=O (centres undefined)	n
O=C1/C(=C/c2ccccc2)CN(C(=O)Oc2ccc([N+](=O)[O-])cc2)C/C1=C\c1ccccc1	n
CC[C@@]1(OC(=O)CN(C)C)C(=O)OCc2c1cc1n(c2=O)Cc2cc3ccccc3nc2-1	y
COC1C(CO)OC(n2c3ccccc3c3c4c(c5c6ccccc6[nH]c5c32)C(=O)NC4=O)C(O)C1OC(=O)C(N)CCCCN (centres undefined)	y
COc1ccc(N=C2NN=C(c3c[nH]c4ccccc34)CS2)cc1OC	n
COc1ccc(CC2C(=O)NC(C)C(=O)N(C)C3Cc4ccc(cc4)Oc4cc(ccc4O)CC(C(=O)NC(C)C(=O)NC(C)C(=O)N2C)N(C)C3=O)cc1 (centres undefined)	y

Hey, just so you know, these numbers are from PubChem BioAssay (NCI).
